The origin of these recorded values is patent US5928933A.

Assay: Enzyme screens for resolution of diastereomeric mixture CHLP(MEMC)/THLP(MEMC) (Example 13)
Format: biochemical
Conditions: 0.050M each isomer; 0.100M potassium phosphate pH 7.0; 5 h; 5.0 to 50 mg/mL enzyme; 25° C.
endpointName: conv. (percent conversion of the diastereomeric mixture) (%)

molecule: protease, type XXIV: commercial enzyme preparation, source bacterial (subtil. Carlsberg) (protein, UniProt P00780 106-379, looked up) Subtilisin Carlsberg: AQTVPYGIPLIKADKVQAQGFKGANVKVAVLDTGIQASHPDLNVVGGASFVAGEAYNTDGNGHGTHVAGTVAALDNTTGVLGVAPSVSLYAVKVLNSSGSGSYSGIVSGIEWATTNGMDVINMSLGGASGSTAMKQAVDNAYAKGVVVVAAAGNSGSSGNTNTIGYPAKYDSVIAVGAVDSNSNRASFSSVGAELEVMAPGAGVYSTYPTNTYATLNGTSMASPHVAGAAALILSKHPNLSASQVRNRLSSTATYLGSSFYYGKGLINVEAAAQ
observedResult: 6
